Attribute: Sensitivity of record 655/ 690
method notes: Relative efficiency of fluorescence / absolute sensitivity of label, normalized to dye A30 in PBS
Format: physicochemical
experimental setup: PBS; excitation 655 nm, record 690 nm
The reply should be a number, written without any unit.

Use the examples below as a reference point.
CCN1C(=CC=CC=CC2=[N+](CCCCS(=O)(=O)[O-])c3ccc(C)cc3C2(C)CCCCC(=O)O)C(C)(C)c2cc(C)ccc21 (stereo not shown) : 0.096
CC[N+]1=C(/C=C/C=C/C=C2/N(CCCCS(=O)(=O)[O-])c3ccccc3C2(C)CCCCC(=O)O)C(C)(C)c2cc(C)cc(C)c21 (stereo not shown) : 0.069

Lab note: next compound to report on.
Looking up CC[N+]1=C(C=CC=CC=C2N(CCCCS(=O)(=O)[O-])c3ccccc3C2(C)C)C(C)(CCCCC(=O)O)c2ccccc21 (stereo not shown) , I found its Sensitivity of record 655/ 690 recorded as 0.054

----------
method notes: Relative efficiency of fluorescence / absolute sensitivity of label, normalized to dye A30 in PBS
Assay type: physicochemical
experimental setup: PBS; excitation 635 nm, record 670 nm
endpoint: Sensitivity of record 635/ 670
The reply should be a number, written without any unit.

Use the examples below as a reference point.
CC[N+]1=C(C=CC=CC=C2N(CCCCS(=O)(=O)[O-])c3ccccc3C2(C)C)C(C)(CCCCC(=O)O)c2ccccc21 (centres unmarked) : 0.262
CCN1C(=CC=CC=CC2=[N+](CCCCS(=O)(=O)[O-])c3ccc(C)cc3C2(C)CCCCC(=O)O)C(C)(C)c2cc(C)ccc21 (centres unmarked) : 0.136
CCN1/C(=C/C=C/C=C/C2=[N+](CC)c3ccccc3C2(C)C)C(C)(CCCCC(=O)O)c2cc(S(=O)(=O)[O-])ccc21 (centres unmarked) : 0.229
CCN1C(=CC=CC=CC2=[N+](CCCCS(=O)(=O)[O-])c3ccccc3C2(C)CCCCC(=O)O)C(C)(C)c2ccccc21 (centres unmarked) : 0.123

Looking up CCN1C(=CC=CC=CC2=[N+](CCCCS(=O)(=O)[O-])c3ccc(C)cc3C2(C)CCCCC(=O)O)C(C)(C)c2ccccc21 (centres unmarked) , I found its Sensitivity of record 635/ 670 recorded as 0.162

Looking up CCN1/C(=C/C=C/C=C/C2=[N+](CC)c3ccc(S(=O)(=O)[O-])cc3C2(C)C)C(C)(CCCCC(=O)O)c2ccccc21 (centres unmarked) , I found its Sensitivity of record 635/ 670 recorded as 0.207

Looking up CC[N+]1=C(/C=C/C=C/C=C2/N(CCCCS(=O)(=O)[O-])c3ccccc3C2(C)CCCCC(=O)O)C(C)(C)c2cc(C)cc(C)c21 (centres unmarked) , I found its Sensitivity of record 635/ 670 recorded as 0.132

----------
Attribute: Sensitivity of record max/ max
method notes: Relative efficiency of fluorescence / absolute sensitivity of label, normalized to dye A30 in PBS
Format: physicochemical
experimental setup: PBS; excitation and record in absorption and fluorescence maxima; ε*Φ normalized to A30 in PBS
The reply should be a number, written without any unit.

CCN1C(=CC=CC=CC2=[N+](CCCCS(=O)(=O)[O-])c3ccc(C)cc3C2(C)CCCCC(=O)O)C(C)(C)c2ccccc21 (stereo not shown) [A4] : 0.255

Lab note: next molecule to report on.
Looking up CC[N+]1=C(/C=C/C=C/C=C2/N(CCCCS(=O)(=O)[O-])c3ccccc3C2(C)CCCCC(=O)O)C(C)(C)c2cc(C)cc(C)c21 (stereo not shown) [A3] , I found its Sensitivity of record max/ max recorded as 0.199

----------
method notes: Quantum efficiency of fluorescence, measured versus a reference dye
Type: physicochemical
experimental setup: PBS
Where a name gives a salt, the structure may show the parent alone.
endpoint: Φ (quantum efficiency of fluorescence)

CCN1/C(=C/C=C/C=C/C2=[N+](CCCCS(=O)(=O)O)c3ccc(S(=O)(=O)O)cc3C2(C)C)C(C)(CCCCC(=O)O)c2cc(S(=O)(=O)[O-])ccc21 (stereo not drawn) [A29, disodium salt] : maximal
CC1(C)C(C=CC=CC=C2N(CCCCS(=O)(=O)O)c3ccccc3C2(C)CCCCC(=O)O)=[N+](CCCCS(=O)(=O)[O-])c2ccccc21 (stereo not drawn) [A10, sodium salt] : maximal
CCN1C(=CC=CC=CC2=[N+](CC)c3ccc(S(=O)(=O)[O-])cc3C2(C)CCCCC(=O)O)C(C)(C)c2cc(S(=O)(=O)[O-])ccc21.[Na+] (stereo not drawn) [A22] : maximal

----------
method notes: Absorption and fluorescence maxima of the dyes
Format: physicochemical
experimental setup: PBS
Attribute: λmax^abs
Reply with just the number (in nm).

CC[N+]1=C(/C=C/C=C/C=C2/N(CCCCS(=O)(=O)[O-])c3ccccc3C2(C)CCCCC(=O)O)C(C)(C)c2cc(C)ccc21 (stereo not drawn) : 647
CCN1/C(=C/C=C/C=C/C2=[N+](CC)c3ccccc3C2(C)C)C(C)(CCCCC(=O)O)c2cc(S(=O)(=O)[O-])ccc21 (stereo not drawn) : 646

Lab note: next compound to report on.
Looking up CCN1C(=CC=CC=CC2=[N+](CCCCS(=O)(=O)[O-])c3ccc(C)cc3C2(C)CCCCC(=O)O)C(C)(C)c2cc(C)ccc21 (stereo not drawn) , I found its λmax^abs recorded as 653

----------
Attribute: Sensitivity of record 655/ 690
method notes: Relative efficiency of fluorescence / absolute sensitivity of label, normalized to dye A30 in PBS
Type: physicochemical
experimental setup: PBS; excitation 655 nm, record 690 nm
The reply should be a number, written without any unit.

Use the examples below as a reference point.
CCN1/C(=C/C=C/C=C/C2=[N+](CC)c3ccccc3C2(C)C)C(C)(CCCCC(=O)O)c2cc(S(=O)(=O)[O-])ccc21 (stereo not shown) [A9] : 0.052
CCN1/C(=C/C=C/C=C/C2=[N+](CC)c3ccc(S(=O)(=O)[O-])cc3C2(C)C)C(C)(CCCCC(=O)O)c2ccccc21 (stereo not shown) [A7] : 0.049

Lab note: next compound to report on.
Looking up CC[N+]1=C(/C=C/C=C/C=C2/N(CCCCS(=O)(=O)[O-])c3ccc(C)cc3C2(C)CCCCC(=O)O)C(C)(C)c2cc(C)cc(C)c21 (stereo not shown) [A6] , I found its Sensitivity of record 655/ 690 recorded as 0.085
